B1: WW domain-containing transcription regulator protein 1, residues 116 to 162; numbered along this chain, Q9GZV5 (parent)
chain: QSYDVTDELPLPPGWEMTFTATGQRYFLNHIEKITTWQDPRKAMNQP

Variants of: B1
Experiment description: abundance fitness (aPCA) (normalised: wild type 0, dead -1); higher = more abundant; growth selection in yeast, the domain comes from the species named
Condition context: Homo sapiens
Classes are defined on abundance fitness with ranges LOW: < -0.2; MID: ≥ -0.2 and < -0.07; HIGH: ≥ -0.07

F27I    LOW
P10Y    LOW
F27W    MID

## Task Lab log: `L9M` — assign abundance fitness category
## Result HIGH

## Task Assign a bin to `G14I`
## Result LOW

## Task Classify this variant: `Q38R`
## Result HIGH

## Task Which of the defined bands does the recorded abundance fitness of `D7Q` sit within?
## Result MID

## Task Which of the defined bands does the recorded abundance fitness of `E32Y` sit within?
## Result HIGH

## Task Please report the category associated with `M44R` , nothing else.
## Result HIGH

## Task // return the class label for `M44A`
## Result HIGH

## Task Band for `Q46H` ?
## Result LOW

## Task Which band does `D7T` fall in?
## Result HIGH

## Task Please report the category associated with `P13M` , nothing else.
## Result MID

## Task Which bin should I file `L9N` under?
## Result HIGH

## Task For the record `Q46F` , report the class its abundance fitness corresponds to.
## Result HIGH

## Task Class? Entry: `E16I`
## Result LOW

Recorded values, source the Human Domainome abundance scans (Beltran et al. 2025).
